Listed here: items and their measured MIC.
Tested on: E. coli AG100A
Test Name: microbe, parasite or virus in culture
Format: cell-based
Details: Escherichia coli, read-out: MIC E. coli AG100A
Observable: MIC

                                   molecule          result
0  NC(=O)c1ccc(C(NC(=O)N2CCN(CCF)C(=O)C2=O)C(=O)N[C@H]2Cc3cccc(C(=O)O)c3OB2O)cc1 (stereo partly shown) [Example 187]    2 to 4 µg/mL
1  O=C(O)CN1CCN(C(=O)NC(C(=O)N[C@H]2Cc3cccc(C(=O)O)c3OB2O)c2ccc(O)c(O)c2Cl)C(=O)C1=O (stereo partly shown) [Example 249]   8 to 16 µg/mL
2  O=C(O)c1cccc2c1OB(O)[C@@H](NC(=O)C(NC(=O)N1CCN(CCF)C(=O)C1=O)c1ncc(O)cc1F)C2 (stereo partly shown) [Example 179]  0.5 to 1 µg/mL
3  CCN1CCN(C(=O)NC(C(=O)N[C@H]2Cc3ccc(F)c(C(=O)O)c3OB2O)c2cccnc2)C(=O)C1=O (stereo partly shown) [Example 141]  32 to 64 µg/mL
4  CCN1CCN(C(=O)N[C@H](C(=O)N[C@H]2Cc3ccc(F)c(C(=O)O)c3OB2O)c2ccc(O)c(F)c2)C(=O)C1=O [Example 160]     > 128 µg/mL
5  CCN1CCN(C(=O)NC(C(=O)N[C@H]2Cc3cccc(C(=O)O)c3OB2O)c2cccs2)C(=O)C1=O (stereo partly shown) [Example 115]    2 to 4 µg/mL
6  CCN1CCN(C(=O)NC(C(=O)N[C@H]2Cc3cccc(C(=O)O)c3OB2O)c2ncc(O)cc2F)C(=O)C1=O (stereo partly shown) [Example 135]    2 to 4 µg/mL

* * *

System: E. coli AG100A
Test Name: microbe, parasite or virus in culture
Format: cell-based
Details: Escherichia coli, read-out: MIC E. coli AG100A
Observable: MIC

>>> df
                                   compound  observable          result
0  Nc1nc(C(NS(=O)(=O)c2cccnc2)C(=O)N[C@H]2Cc3cccc(C(=O)O)c3OB2O)cs1 (stereo partly shown) [Example 7]         MIC  32 to 64 µg/mL
1  CCN1CCN(C(=O)NC(C(=O)N[C@H]2Cc3cccc(C(=O)O)c3OB2O)c2ncc(C(N)=O)cc2F)C(=O)C1=O (stereo partly shown) [Example 246]         MIC  32 to 64 µg/mL
2  CCN1CCN(C(=O)NC(C(=O)N[C@H]2Cc3cccc(C(=O)O)c3OB2O)c2ccc(S(N)(=O)=O)cc2)C(=O)C1=O (stereo partly shown) [Example 102]         MIC    2 to 4 µg/mL
3  Nc1nc(C(NC(=O)N2CCN(CCF)C(=O)C2=O)C(=O)N[C@H]2Cc3cccc(C(=O)O)c3OB2O)c(Cl)s1 (stereo partly shown) [Example 13]         MIC    2 to 4 µg/mL

* * *

Tested System: E. coli PBP1b (Escherichia coli (strain K12), UniProt P02919)
Sequence (P02919 whole entry): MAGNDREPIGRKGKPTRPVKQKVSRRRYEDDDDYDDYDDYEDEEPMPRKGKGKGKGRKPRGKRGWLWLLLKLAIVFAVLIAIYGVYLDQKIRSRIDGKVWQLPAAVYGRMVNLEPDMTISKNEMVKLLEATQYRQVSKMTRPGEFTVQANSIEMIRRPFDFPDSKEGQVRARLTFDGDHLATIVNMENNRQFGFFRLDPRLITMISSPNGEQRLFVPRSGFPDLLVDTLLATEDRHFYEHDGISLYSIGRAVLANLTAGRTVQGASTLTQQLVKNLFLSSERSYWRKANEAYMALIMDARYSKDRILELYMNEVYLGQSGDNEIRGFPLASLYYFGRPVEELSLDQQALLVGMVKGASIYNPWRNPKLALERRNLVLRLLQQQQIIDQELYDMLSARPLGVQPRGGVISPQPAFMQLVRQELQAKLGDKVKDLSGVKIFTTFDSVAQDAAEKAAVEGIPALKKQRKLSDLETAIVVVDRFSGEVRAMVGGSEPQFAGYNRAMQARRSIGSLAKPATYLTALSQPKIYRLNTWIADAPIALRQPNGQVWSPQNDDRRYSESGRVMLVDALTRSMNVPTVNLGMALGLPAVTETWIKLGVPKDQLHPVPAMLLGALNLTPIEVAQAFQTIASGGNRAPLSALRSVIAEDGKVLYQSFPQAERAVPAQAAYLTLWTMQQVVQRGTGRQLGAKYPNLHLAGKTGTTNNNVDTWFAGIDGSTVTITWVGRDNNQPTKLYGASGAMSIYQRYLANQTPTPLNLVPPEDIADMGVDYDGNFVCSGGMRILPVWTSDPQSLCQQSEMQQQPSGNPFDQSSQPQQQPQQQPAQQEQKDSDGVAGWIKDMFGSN
Test Name: Radioligand competition binding assay with 14C-labeled boronic acid probe, PBP1b
Reported EC50 values for the following compounds.
Observable: EC50

>>> print(df.to_string())
                                   compound  observable        result
0  CCCN1CCN(C(=O)NC(C(=O)N[C@H]2Cc3cccc(C(=O)O)c3OB2O)c2ccc(O)c(O)c2Cl)C(=O)C1=O (stereo partly shown) [Example 82]        EC50  10 to 100 µM
1  CCN1CCN(C(=O)NC(C(=O)N[C@H]2Cc3cccc(C(=O)O)c3OB2O)c2cccc(N)n2)C(=O)C1=O (stereo partly shown) [Example 104]        EC50      > 100 µM
2  CCN1CCN(C(=O)N[C@@H](CNS(C)(=O)=O)C(=O)N[C@H]2Cc3cccc(C(=O)O)c3OB2O)C(=O)C1=O [Example 84]        EC50       < 10 µM
3  CCN1CCN(C(=O)NC(C(=O)N[C@H]2Cc3cccc(C(=O)O)c3OB2O)c2cccnc2)C(=O)C1=O (stereo partly shown) [Example 105]        EC50      > 100 µM
